Sourced from ChEMBL document CHEMBL3433997

- system: Hexose transporter 1 (Plasmodium falciparum) (UniProt O97467)
- procedure_summary: ST_JUDE_LEISH: Cytotoxicity at 2uM final concentration against transgenic Leishmania Mexicana promastigotes LmPfHT that are glucose transport deficient and complemented with the Plasmodium falciparum hexose transporter. Activity is measured by DNA content using SYBR green in vitro
- Assay type: functional
Label Yes when inhibition is at or above 2%; otherwise label No.

Past entries and their recorded results:
stdin: Has CC[C@H]1CN2CC[C@@H]1C[C@H]2[C@H](O)c1cc(N2CCC(O)(c3ccc(Cl)cc3)CC2)nc2ccc(OC)cc12 a recorded inhibition greater than or equal to 2%?
stdout: No

stdin: What would you report for C[C@@H]1C[C@@H]([C@H](O)CC2CC(=O)NC(=O)C2)C(=O)[C@@H](C)C1 ?
stdout: Yes

Continuing:
stdin: Has CO[C@@H]1C[C@@H](C(=O)Nc2ccccc2)N(c2ccc(C#N)c3ccccc23)C1 a recorded inhibition greater than or equal to 2%?
stdout: Yes

stdin: What would you report for COC(=O)c1ccc(CC(C)NCC(O)c2cccc(OC(F)(F)F)c2)cc1 (stereo not given) ?
stdout: No

stdin: What would you report for CC(=O)N(Cc1ccc(-c2ccc(CNCCc3ccccc3)cc2)cc1)C1CCN(Cc2ccccc2)CC1 ?
stdout: No

###

Documented inhibition across a set of compounds
- system: Hexose transporter 1 (Plasmodium falciparum)
- procedure_summary: ST_JUDE_LEISH: Cytotoxicity at 2uM final concentration against transgenic Leishmania Mexicana promastigotes LmPfHT that are glucose transport deficient and complemented with the Plasmodium falciparum hexose transporter. Activity is measured by DNA content using SYBR green in vitro
- Assay type: functional
Report the figure in % without appending any unit label.

Please review the following examples before continuing.
stdin: If you can, please state the reported inhibition value of CC[C@H]1CN2CC[C@H]1C[C@H]2[C@H](O)c1cc(-c2ccc(SC)cc2)nc2ccc(OC)cc12 .
stdout: 4.13

stdin: What would you report for CCCCCC(C)C(C)c1cc(O)c2c3c(c(=O)oc2c1)CN(Cc1ccccc1)CC3 (stereo not given) ?
stdout: 0.04

stdin: What would you report for Cc1ccc(-n2nc(C)c3c2NC(=O)CSC3c2ccsc2)cc1 (stereo not given) ?
stdout: 13.5

stdin: What would you report for CC(Cc1ccc(SC(C)(C)C)cc1)NCC(O)c1cccc(Cl)c1 (stereo not given) ?
stdout: -2.57

Continuing:
stdin: If you can, please state the reported inhibition value of COc1ccc2[nH]cc(C3=CCN(Cc4ccccc4)CC3)c2c1 .
stdout: 2.34

###

- system: Solute carrier family 2, facilitated glucose transporter member 1 (Homo sapiens) (UniProt P11166)
- Sequence (P11166 whole entry): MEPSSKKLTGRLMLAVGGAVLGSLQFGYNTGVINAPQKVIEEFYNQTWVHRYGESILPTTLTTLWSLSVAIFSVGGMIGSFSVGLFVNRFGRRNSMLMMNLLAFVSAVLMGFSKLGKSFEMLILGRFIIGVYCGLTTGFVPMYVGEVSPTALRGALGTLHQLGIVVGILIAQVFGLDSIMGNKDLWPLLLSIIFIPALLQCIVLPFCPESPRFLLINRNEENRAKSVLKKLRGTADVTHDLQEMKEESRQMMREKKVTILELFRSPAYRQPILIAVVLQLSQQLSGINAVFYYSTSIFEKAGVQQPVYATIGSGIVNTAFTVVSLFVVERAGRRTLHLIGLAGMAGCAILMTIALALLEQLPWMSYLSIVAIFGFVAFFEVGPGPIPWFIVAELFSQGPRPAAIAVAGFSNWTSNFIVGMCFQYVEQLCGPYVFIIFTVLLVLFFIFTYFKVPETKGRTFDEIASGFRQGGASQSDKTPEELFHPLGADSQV
- procedure_summary: ST_JUDE_LEISH: Cytotoxicity at 2uM final concentration against transgenic Leishmania Mexicana promastigotes LmGLUT1 that are glucose transport deficient and complemented with the human glucose transporter GLUT1. Activity is measured by DNA content using SYBR green in vitro
- Type: functional
quantity_measured: inhibition (%)
Report the figure in % without appending any unit label.

stdin: If you can, please state the reported inhibition value of CCN1CCC2(c3cccc(OC)c3)Cc3nc4ccccc4c(-c4ccccc4)c3CC2C1 (stereo not drawn) .
stdout: 3.21

stdin: What would you report for C/C=C1/CN2CC[C@H]1C[C@H]2[C@H](O)c1ccnc2ccc(O)cc12 ?
stdout: -0.31

stdin: What would you report for CCCCOC(C(=O)OCC1CCCN1C)(c1ccccc1)c1ccccc1 (stereo not drawn) ?
stdout: -0.11

stdin: What would you report for OC(CNC1CCCCC1)c1ccc(Cl)c(Cl)c1 (stereo not drawn) ?
stdout: -1.03

stdin: What would you report for Cc1ccc(CC(C)NCC(O)c2cccc([N+](=O)[O-])c2)cc1 (stereo not drawn) ?
stdout: 0.3

stdin: What would you report for CC(=O)C1(c2ccccc2)CCN(CCC2(c3ccc(Cl)c(Cl)c3)CN(C(=O)C3CCCC3)CCO2)CC1 (stereo not drawn) ?
stdout: 4.09

stdin: What would you report for O=C(NC1CCC(CN2CCC(c3c[nH]c4ccccc34)CC2)CC1)C1(O)c2ccccc2-c2ccccc21 (stereo not drawn) ?
stdout: 1.4

stdin: What would you report for CC(C)CNCc1cccc(-c2cccc(CN(C(=O)Nc3ccccc3)C3CCN(Cc4ccccc4)CC3)c2)c1 ?
stdout: 1.9

stdin: What would you report for Cc1c2ccncc2c(C)c2c1[nH]c1ccccc12 ?
stdout: 17.5

stdin: What would you report for CCC(C)CN1CCC(N(C)c2cc(NC(=O)c3ccc(F)cc3)ccn2)CC1 (stereo not drawn) ?
stdout: -0.37

Continuing:
stdin: If you can, please state the reported inhibition value of O=C(/C=C/c1ccc(Cl)c(Cl)c1)N1CCC(CN2CCC(c3c[nH]c4ccc(O)cc34)CC2)CC1 .
stdout: 1.04

stdin: What would you report for COc1ccc(CC(C)NCC(O)c2cccc(Cl)c2F)cc1 (stereo not drawn) ?
stdout: 1.96
